Reported Percent Effect values for the following compounds.
system: Plasmodium falciparum; assay: Calibr Malaria Delayed Death Assay SOP; type: functional, organism-based; set-up: scale not given: in the data most compounds retested in dose-response had high values; conditions: concentration 4.99e-06 (unit not given; other assays of the set use mol/L)
The whole screen tested about 38,000 compounds, of which about 1,200 (3.2%) showed an effect of 50% or more. The median lay at about -58%. The full list was thinned out, with strong results kept by preference.
Express it in %; write the number only.

CCC(c1ccncc1)N(C)S(C)(=O)=O (stereo unspecified) ... -63.43
CN(Cc1ccco1)C[C@H]1OC[C@@H]2CCN(Cc3ccsc3)C[C@@H]21.O=C(O)C(F)(F)F.O=C(O)C(F)(F)F ... 65.82
CN1CCN(C[C@H]2OC[C@@H]3CCN(Cc4ccsc4)C[C@@H]32)CC1 ... 77.67
NC(=O)c1cccnc1N1C[C@@H]2CC[C@H](C1)N(Cc1ccccn1)C2=O ... -36.76
Cc1ccc(CN2CC[C@H]3CO[C@H](CN(C)Cc4ccco4)[C@H]3C2)s1.O=C(O)C(F)(F)F.O=C(O)C(F)(F)F ... 57.63

INPUT: Param readout = Percent Effect; param system = Plasmodium falciparum; param query = `CCc1[nH]c2c(CNc3cncc(C(=O)N(C)C)n3)cc(F)cc2c1C` ; response: value
OUTPUT: -100.3

INPUT: Next entry: `O=C(Cc1ccccc1Cl)NCCN1CCC(c2cccs2)CC1`
OUTPUT: 62.17

INPUT: What about `COc1ccc(CCC(=O)NCCN2CCC(c3cccs3)CC2)cc1` ?
OUTPUT: 74.85
